Source of measurements: PubChem BioAssay (NCI)

System: MALME-3M melanoma
Assay: NCI tumour cell line growth inhibition, 48 h
Measure Name: GI50

Please review the following examples before continuing.
CCN1CCC(Oc2c(C#N)ncc3[nH]c4ncccc4c23)CC1 :: 22.9 µM
COc1cc(-c2nc3ccc(C)cc3[nH]2)ccc1OCC(=O)N=Nc1c(O)[nH]c2ccc(Cl)cc12 :: 1.64 µM
COc1ccc2c(c1)C(=O)c1c-2n(CCCCl)c(=O)c2cc(OC)c(OC)cc12 :: 18.6 µM

Attention now turns to another entry.
Q: Form field: GI50 recorded for CCCCCCCCc1cc[n+](CC(=O)c2ccc(Br)cc2)cc1 with MALME-3M melanoma (enter value)
Result: 1.69 µM
